Test system: HeLa Kyoto;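 note: synchronized HeLa Kyoto cells, proteins quantified by TMT10plex mass spectrometry, three biological replicates, mitosis taken 0.5 h after nocodazole release, G1/S directly after double thymidine block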
Assay: thermal stability score vs G1/S (z-score of summed log2 fold changes over temperatures); higher = more thermally stable than in G1/S
Conditions: cell cycle stage: mitosis
Reported thermal stability score by item:
experimental.readout: thermal stability score

input.sequence	experimental.readout	readout.value
MAGVRSLRCSRGCAGGCECGDKGKCSDSSLLGKRLSEDSSRHQLLQKWASMWSSMSEDASVADMERAQLEEEAAAAEERPLVFLCSGCRRPLGDSLSWVASQEDTNCILLRCVSCNVSVDKEQKLSKREKENGCVLETLCCAGCSLNLGYVYRCTPKNLDYKRDLFCLSVEAIESYVLGSSEKQIVSEDKELFNLESRVEIEKSLTQMEDVLKALQMKLWEAESKLSFATCKS [MIS18A]	thermal stability score	-2.88
MEEASEGGGNDRVRNLQSEVEGVKNIMTQNVERILARGENLEHLRNKTEDLEATSEHFKTTSQKVARKFWWKNVKMIVLICVIVFIIILFIVLFATGAFS [VAMP8]	thermal stability score	-6.62
MAEERPGAWFGFGFCGFGQELGSGRGRQVHSPSPLRAGVDICRVSASWSYTAFVTRGGRLELSGSASGAAGRCKDAWASEGLLAVLRAGPGPEALLQVWAAESALRGEPLWAQNVVPEAEGEDDPAGEAQAGRLPLLPCARAYVSPRAPFYRPLAPELRARQLELGAEHALLLDAAGQVFSWGGGRHGQLGHGTLEAELEPRLLEALQGLVMAEVAAGGWHSVCVSETGDIYIWGWNESGQLALPTRNLAEDGETVAREATELNEDGSQVKRTGGAEDGAPAPFIAVQPFPALLDLPMGSDAVKASCGSRHTAVVTRTGELYTWGWGKYGQLGHEDTTSLDRPRRVEYFVDKQLQVKAVTCGPWNTYVYAVEKGKS [RCCD1]	thermal stability score	-1.48
